Cited source: ChEMBL document CHEMBL4689842

# Tested on: U2OS
# Assay: Incucyte cell viability with U2OS; also: filed as whole numbers so only -1 and 0 and 1 occur
# Type: toxicity, cell-based
# Condition set: human, 12 h, 10 µM, compound concentration 10 uM, replicate number 1, timepoint 12 hours
Would you kindly list Growth Rate for each of these compounds?

A selection of reference data follows.
{"Compound": "Cn1c(CNc2cccc(C(=O)NCc3ccccc3C(F)(F)F)c2)nnc1-c1ccncc1", "Growth Rate": 0}
{"Compound": "C=CC(=O)Nc1cccc(Sc2nc(Nc3ccc(N4CCN(C)CC4)cc3)ncc2Cl)c1", "Growth Rate": 0}
{"Compound": "CNCc1ccccc1-c1csc([C@@H](C)Nc2nc(C)nc3cc(OC)c(OC)cc23)c1", "Growth Rate": 0}
{"Compound": "CO[C@@H](C)c1c(Nc2ccc([C@H](N(C)C(=O)C3CCS(=O)(=O)CC3)C(F)(F)F)cc2)cnc2cc(Cl)nn12", "Growth Rate": 1}
{"Compound": "CCc1nn(CCCN2CCN(c3cccc(Cl)c3)CC2)c(=O)n1CCOc1ccccc1.Cl [NEFAZODONE HYDROCHLORIDE]", "Growth Rate": 0}

Batch request: Growth Rate per item, same order as input.
1. O=c1cc(N2CCOCC2)oc2c(-c3cccc4c3sc3ccccc34)cccc12
2. CC(C)NC(=O)N1CC[C@H](NC2=Nc3cc(F)ccc3N(CC(F)F)c3ccc(Cl)cc32)C1
3. CCOc1cn(-c2ccc(F)cc2C)nc1C(=O)Nc1ccc(Oc2ccnc3cc(OC)c(OC)cc23)c(F)c1

// result
0
0
1

Batch request: Growth Rate per item, same order as input.
1. COC(=O)C1=C(C)NC(C)=C(C(=O)OCCCN2CCC(c3ccccc3)(c3ccccc3)CC2)[C@H]1c1cccc([N+](=O)[O-])c1
2. S=C=Nc1cccc(NC(=S)NCCCCNC(=S)Nc2cccc(N=C=S)c2)c1
3. C#Cc1cccc(Nc2ncnc3cc(OCCOC)c(OCCOC)cc23)c1

// result
1: 0; 2: 1; 3: 1

----------
# Test system: U2OS
# Assay: Multiplex assay against U2OS
# Assay type: toxicity, cell-based
# Condition set: human, 12 h, 1 µM, compound concentration 1 uM, replicate 2
Reported endpoint: Population Healthy Nuclei (%)

A selection of reference data follows.
{"Chemical smiles": "COC(=O)C1=C(C)NC(C)=C(C(=O)OCCCN2CCC(c3ccccc3)(c3ccccc3)CC2)[C@H]1c1cccc([N+](=O)[O-])c1", "Population Healthy Nuclei (%)": "78%"}
{"Chemical smiles": "C=CC(=O)Nc1cccc(Oc2nc(Nc3ccc(N4CCN(C)CC4)cc3OC)ncc2Cl)c1", "Population Healthy Nuclei (%)": "26%"}
{"Chemical smiles": "CCOC(=O)Nc1cc(-c2ccc(C)c(NS(C)(=O)=O)c2)nn2c(C)nnc12", "Population Healthy Nuclei (%)": "88%"}

// query Need Population Healthy Nuclei (%) of `CCCSc1nc(N[C@@H]2C[C@H]2c2ccc(F)c(F)c2)c2nnn([C@@H]3C[C@H](OCCO)[C@@H](O)[C@H]3O)c2n1` , thanks.
// result 93%

----------
Would you kindly list Population Tubulin-Different-Phenotype (%) for each of these compounds?
# Tested on: Fibroblast
# Assay: Multiplex assay against human fibroblast
# Format: toxicity, cell-based
# Condition set: 12 h, 10 µM, compound concentration 10 uM, replicate 2
One number for each entry, in %.

{"Compound": "CC1=C(C(=O)Nc2cc3cn[nH]c3cc2F)C(c2ccc(C(F)(F)F)cc2)CC(=O)N1 (centres undefined)", "Tested on": "Fibroblast", "Units of measure": "%", "Value reported": 25}

Batch request: Population Tubulin-Different-Phenotype (%) per item, same order as input.
1. CCc1nn(CCCN2CCN(c3cccc(Cl)c3)CC2)c(=O)n1CCOc1ccccc1.Cl [NEFAZODONE HYDROCHLORIDE]
2. O=C(c1cc2c(cc1F)OC(c1ccc(F)cc1)(c1ccc(Cl)cc1Cl)O2)N1CCOCC1 (centres undefined)
3. Cc1ccc2c(c1)c1c(n2CCc2ccc(C)nc2)CCN(C)C1 [LATREPIRDINE]

// result
[97, 100, 100]

----------
# Tested on: Fibroblast
# Assay: Multiplex assay against human fibroblast
# Format: toxicity, cell-based
# Condition set: 24 h, 1 µM, compound concentration 1 uM, replicate 1
Would you kindly list Population Hoechst High Intensity Objects (%) for each of these compounds?
Numbers only, in %.

{"Compound": "Cc1ccc2c(c1)c1c(n2CCc2ccc(C)nc2)CCN(C)C1 [LATREPIRDINE]", "Value reported": 16}
{"Compound": "COc1cc2ncn(-c3cc(OCc4ccccc4C(F)(F)F)c(C(N)=O)s3)c2cc1OC [GW843682X]", "Value reported": 16}
{"Compound": "O=C(c1cc2c(cc1F)OC(c1ccc(F)cc1)(c1ccc(Cl)cc1Cl)O2)N1CCOCC1 (stereo not drawn)", "Value reported": 18}

Batch request: Population Hoechst High Intensity Objects (%) per item, same order as input.
1. Cc1nc(N2CC[C@H](O)C2)ncc1-c1cc(C(F)(F)F)cc2[nH]ncc12
2. CCOC(=O)Nc1cc(-c2ccc(C)c(NS(C)(=O)=O)c2)nn2c(C)nnc12
3. CNC(=O)Nc1ccc(-c2nc(N3CC4CCC(C3)O4)c3cnn(C4CCC5(CC4)OCCO5)c3n2)cc1
4. Cc1c[nH]c2nccc(Oc3c(F)cc(Nc4cc(Cl)nc(N)n4)cc3F)c12 [BAY-549]
5. COC(=O)C1=C(C)NC(C)=C(C(=O)OCCCN2CCC(c3ccccc3)(c3ccccc3)CC2)[C@H]1c1cccc([N+](=O)[O-])c1 [NIGULDIPINE]

// result
12
12
20
10
13

----------
# Test system: Fibroblast
# Assay: Multiplex assay against human fibroblast
# Type: toxicity, cell-based
# Condition set: 48 h, 1 µM, compound concentration 1 uM, replicate 2
Consider the cut-off 3%. If the recorded Population Pyknosed Nuclei (%) is strictly smaller, the label is MET; if not, the label is NOT MET.

Check out these entries, answers already filled in.
{"Compound": "COc1ccc(-c2ccc3ncc4c(c3c2)n(-c2ccc(N3CCNCC3)c(C(F)(F)F)c2)c(=O)n4C)cn1.O=C(O)/C=C\\C(=O)O", "Label value": "NOT MET"}
{"Compound": "CNC(=O)Nc1ccc(-c2nc(N3CC4CCC(C3)O4)c3cnn(C4CCC5(CC4)OCCO5)c3n2)cc1", "Label value": "NOT MET"}

// query Is it true that Population Pyknosed Nuclei (%) reported for Cc1ccccc1C(c1ccccc1C)N1C2CCC1CC(O)(c1ccccc1)C2 (stereo not drawn) is less than 3%?
// result MET

// query Is it true that Population Pyknosed Nuclei (%) reported for `O=c1cc(N2CCOCC2)oc2c(-c3cccc4c3sc3ccccc34)cccc12` is less than 3%?
// result NOT MET

// query Is it true that Population Pyknosed Nuclei (%) reported for `COC(=O)C1=C(C)NC(C)=C(C(=O)OCCCN2CCC(c3ccccc3)(c3ccccc3)CC2)[C@H]1c1cccc([N+](=O)[O-])c1` is less than 3%?
// result MET

----------
# Tested on: HEK-293T
# Assay: Multiplex assay against HEK293T
# Type: toxicity, cell-based
# Condition set: human, 24 h, 10 µM, compound concentration 10 uM, replicate 2
Each entry gets F if its Population Pyknosed Nuclei (%) stays under 40%, and T if its Population Pyknosed Nuclei (%) is 40% or above.

{"Compound": "CC(C)OC(=O)N1CCC(Oc2ncnc3c2cnn3-c2ccc(S(C)(=O)=O)cc2F)CC1", "Tested on": "HEK-293T", "Label value": "F"}
{"Compound": "CC(C)NC(=O)N1CC[C@H](NC2=Nc3cc(F)ccc3N(CC(F)F)c3ccc(Cl)cc32)C1", "Tested on": "HEK-293T", "Label value": "F"}
{"Compound": "CCc1nn(CCCN2CCN(c3cccc(Cl)c3)CC2)c(=O)n1CCOc1ccccc1.Cl [NEFAZODONE HYDROCHLORIDE]", "Tested on": "HEK-293T", "Label value": "T"}

// query # check: Population Pyknosed Nuclei (%) of COc1ccc(-c2ccc3ncc4c(c3c2)n(-c2ccc(N3CCNCC3)c(C(F)(F)F)c2)c(=O)n4C)cn1.O=C(O)/C=C\C(=O)O [BGT-226] is greater than or equal to 40%
// result F

// query # check: Population Pyknosed Nuclei (%) of CC(C)CC(=O)Nc1[nH]nc2c1CN(C(=O)C1CCN(C)CC1)C2(C)C [PHA-793887] is greater than or equal to 40%
// result F

// query # check: Population Pyknosed Nuclei (%) of `CNC(=O)Nc1ccc(-c2nc(N3CC4CCC(C3)O4)c3cnn(C4CCC5(CC4)OCCO5)c3n2)cc1` is greater than or equal to 40%
// result T

----------
Would you kindly list Population Mitochondria Different-Phenotype (%) for each of these molecules?
# Test system: U2OS
# Assay: Multiplex assay against U2OS
# Type: toxicity, cell-based
# Condition set: human, 48 h, 10 µM, compound concentration 10 uM, replicate 1
Numbers only, in %.

A selection of reference data follows.
{"Molecule": "Cc1ccc2c(c1)c1c(n2CCc2ccc(C)nc2)CCN(C)C1 [LATREPIRDINE]", "Units of measure": "%", "Value reported": 90}
{"Molecule": "CCCSc1nc(N[C@@H]2C[C@H]2c2ccc(F)c(F)c2)c2nnn([C@@H]3C[C@H](OCCO)[C@@H](O)[C@H]3O)c2n1", "Units of measure": "%", "Value reported": 94}
{"Molecule": "COc1ccccc1CN[C@H]1C2CCN(CC2)[C@H]1C(c1ccccc1)c1ccccc1", "Units of measure": "%", "Value reported": 78}

Batch request: Population Mitochondria Different-Phenotype (%) per item, same order as input.
1. CCc1ccc(OCc2ccccc2C(=O)Nc2ccc3nc(C)cc(N)c3c2)cc1.Cl
2. COC(=O)C1=C(C)NC(C)=C(C(=O)OCCCN2CCC(c3ccccc3)(c3ccccc3)CC2)[C@H]1c1cccc([N+](=O)[O-])c1

// result
1: 95; 2: 100
